Data provenance: patent US20020146741A1

Target: GR (Homo sapiens)
Assay: FP-based competitive ligand binding assay
Conditions: GR 4 nM, fluorescein-dexamethasone probe, 1-hour incubation at room temperature
value kind: Ki (nM)

>>> numeric_result("CC1(C)O[C@@H]2C[C@H]3[C@@H]4CCC5=CC(=O)C=C[C@]5(C)[C@@]4(F)[C@@H](O)C[C@]3(C)[C@]2(C(=O)CO)O1 [Triamcinolone acetonide]")
0.9

[I] CC(=O)OCC(=O)[C@@]12OC3(CCCC3)O[C@@H]1C[C@H]1[C@@H]3CCC4=CC(=O)C=C[C@]4(C)[C@@]3(F)[C@@H](O)C[C@@]12C [Amcinonide]
[II] CC(=O)OCC(=O)[C@@]12OC(C)(C)O[C@@H]1C[C@H]1[C@@H]3C[C@H](F)C4=CC(=O)C=C[C@]4(C)[C@@]3(F)[C@@H](O)C[C@@]12C [Fluocinonide]
[III] CC1(C)O[C@@H]2C[C@H]3[C@@H]4C[C@H](F)C5=CC(=O)C=C[C@]5(C)[C@H]4[C@@H](O)C[C@]3(C)[C@]2(C(=O)CO)O1 [Flunisolide]
Req: Descending sort on Ki required. Field: ranking. Enter the labels in the order requested.
Resp: II, I, III
(II: 4.4 nM, I: 1.9 nM, III: 1 nM)

---

Molecular target: GR (Homo sapiens)
Sequence (P04150 1-777): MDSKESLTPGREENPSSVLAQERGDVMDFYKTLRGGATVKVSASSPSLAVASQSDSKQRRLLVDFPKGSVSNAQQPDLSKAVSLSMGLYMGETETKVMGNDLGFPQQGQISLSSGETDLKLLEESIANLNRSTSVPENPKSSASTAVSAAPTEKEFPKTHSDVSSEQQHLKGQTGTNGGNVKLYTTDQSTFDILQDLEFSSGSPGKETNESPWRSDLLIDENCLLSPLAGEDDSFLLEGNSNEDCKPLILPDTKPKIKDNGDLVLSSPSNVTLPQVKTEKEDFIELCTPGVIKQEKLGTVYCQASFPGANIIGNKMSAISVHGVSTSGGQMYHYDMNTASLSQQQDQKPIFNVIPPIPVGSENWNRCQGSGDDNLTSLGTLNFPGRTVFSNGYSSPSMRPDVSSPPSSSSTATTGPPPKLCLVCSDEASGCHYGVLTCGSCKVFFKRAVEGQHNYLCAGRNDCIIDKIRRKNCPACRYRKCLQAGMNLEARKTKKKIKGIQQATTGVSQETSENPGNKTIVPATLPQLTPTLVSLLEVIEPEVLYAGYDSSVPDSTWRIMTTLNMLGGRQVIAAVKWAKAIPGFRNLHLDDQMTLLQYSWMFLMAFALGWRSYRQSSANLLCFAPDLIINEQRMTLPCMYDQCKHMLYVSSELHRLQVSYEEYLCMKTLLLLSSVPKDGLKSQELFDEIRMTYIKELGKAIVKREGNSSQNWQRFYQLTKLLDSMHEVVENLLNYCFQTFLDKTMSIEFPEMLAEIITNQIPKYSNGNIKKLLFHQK
Assay: FP-based competitive ligand binding assay
Design: GR was produced as a full length protein in insect cells and partially purified using ion exchange chromatography; made in house; host or cells: insect cells (baculovirus)
Conditions: relative binding affinity, dexamethasone = 100
value kind: RBA

>>> numeric_result("C[C@]12CCC(=O)C=C1CC[C@@H]1[C@@H]2[C@@H](O)C[C@@]2(C)[C@H]1CC[C@]2(O)C(=O)CO")
24

[1] CC1(C)O[C@@H]2C[C@H]3[C@@H]4C[C@H](F)C5=CC(=O)C=C[C@]5(C)[C@H]4[C@@H](O)C[C@]3(C)[C@]2(C(=O)CO)O1 [Flunisolide]
[2] CC(=O)OCC(=O)[C@@]12OC3(CCCC3)O[C@@H]1C[C@H]1[C@@H]3CCC4=CC(=O)C=C[C@]4(C)[C@@]3(F)[C@@H](O)C[C@@]12C [Amcinonide]
[3] CC(=O)OCC(=O)[C@@]12OC(C)(C)O[C@@H]1C[C@H]1[C@@H]3C[C@H](F)C4=CC(=O)C=C[C@]4(C)[C@@]3(F)[C@@H](O)C[C@@]12C [Fluocinonide]
Req: Which order do these items take when sorted by rising RBA? List them. Field: ranking. Enter the labels in the order requested.
Resp: 3, 2, 1
(3: 17, 2: 40, 1: 73)
